Reference for the values: patent US20260125454A1

test-system: CGRP antigen
assay-info: cell-based or functional assay
Attribute: Relative binding activity (%) vs Ref(Teva)
I'd appreciate it if you included the unit after the number.

C117 (antibody, V domains shown, 2B8-HC1 + 1A2-LC2; chimeric, human constant regions) VH: EVQLQQSGPELVKPGASVKISCKASGYTFTDYNMHWVKQSHGKSLEWIGNIYPYNGGTVYNQKFNNKATLTVHTSSSTAYMDLRSLTSDDSAVYYCAREGLGGYWGQGTTLTVSS VL: DIVLTQSPASLAVSLGQRATISCKASQNIDYDGYAYLNWYQQKPGQPPKVLIYSVFNLESGIPARFSGSGSGTDFTLNIHPVEEEDAATYYCQQSNEFPYTFGGGTKLEVK :: 74.1%
C74 (antibody, V domains shown, 1F5-HC + 1F5-LC1; chimeric, human constant regions) VH: EVQLQQSGPELVKPGASVKISCKTSGYTFIDFNMHWVKQSHGKSLEWIGYIYPYNGDVVYNQNFTNKATLTVDSSSSTAYMELRRVTSEDSAIYYCAREGLGGYWGQGTTLTVSS VL: DIVLTQSPASLAVSLGQRATISCKASQNIDFDGYAYMNWYQHKPGQPPRVLIYSVFNLESGIPARFSGSGSGTDFTLNIHPVEEEDAATYYCQQSHEVPYTFGGGTNLEIK :: 76%
C71 (antibody, V domains shown, 1F5-HC + 1A2-LC2; chimeric, human constant regions) VH: EVQLQQSGPELVKPGASVKISCKTSGYTFIDFNMHWVKQSHGKSLEWIGYIYPYNGDVVYNQNFTNKATLTVDSSSSTAYMELRRVTSEDSAIYYCAREGLGGYWGQGTTLTVSS VL: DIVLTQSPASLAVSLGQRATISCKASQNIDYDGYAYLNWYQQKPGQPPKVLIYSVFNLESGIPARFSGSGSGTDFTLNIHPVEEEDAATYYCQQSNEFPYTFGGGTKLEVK :: 106%

Lookup: Fill in: Relative binding activity (%) vs Ref(Teva) of C79 (antibody, V domains shown, 1F5-HC + 2B8-LC2; chimeric, human constant regions) VH: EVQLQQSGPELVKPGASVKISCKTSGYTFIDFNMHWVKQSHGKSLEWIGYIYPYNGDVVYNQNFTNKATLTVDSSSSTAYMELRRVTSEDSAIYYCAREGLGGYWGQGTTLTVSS VL: DVVLTQSPTSLAVSLGQRATISCQASQNIDGNTYMNWYQQKPGQPPKVLIYSIFNLESGIPARFSGSGSGTHFTLTIHPVEEEDAATYYCQQSNDYPYTFGGGTKLEIK is ___
Found: 71.1%
